For each record, write down the corresponding IC50.
Test system: HCV replicon cells (2209-23), genotype 1b replicon
METHOD NOTES: HCV Replicon Assay (Renilla luciferase reporter)
Type: cell-based, HCV genotype 1b replicon in human hepatoma Huh7 cells
CONDITION INFO: Hepatitis C virus, 72 h, 2209-23 cells, three days incubation
One number for each entry, in nM.

COc1c(/C=C/c2ccc(NS(C)(=O)=O)cc2C(=O)O)cc(-c2ccc[nH]c2=O)cc1C(C)(C)C : 10

Value sought for every listed molecule: IC50.
1. COc1c(/C=C/c2ccc(NS(C)(=O)=O)cc2)cc(-c2ccc[nH]c2=O)cc1C1(C(F)F)CC1
2. COc1c(/C=C/c2ccc(NS(C)(=O)=O)cc2)cc(-c2ccc[nH]c2=O)cc1C1(Cl)CC1
3. COc1c(/C=C/c2ccc(NS(C)(=O)=O)cc2)cc(-c2ccc[nH]c2=O)cc1C1(C#N)CC1
4. COc1c(/C=C/c2ccc(NS(C)(=O)=O)cc2)cc(-c2ccc[nH]c2=O)cc1C(C)(C)C
5. COc1c(/C=C/c2ccccc2C(C)=O)cc(-c2ccc[nH]c2=O)cc1C(C)(C)C
6. COc1c(/C=C/c2ccc(NS(C)(=O)=O)cc2CO)cc(-c2cc(F)c[nH]c2=O)cc1C(C)(C)C
7. COc1c(/C=C/c2ccc(NS(C)(=O)=O)cc2)cc(-c2cc(F)c[nH]c2=O)cc1C(C)(C)C

**Result**
1: 34.4; 2: 10.2; 3: 22; 4: 6; 5: 208; 6: 43.2; 7: 78

Reading of IC50 for "CC1(C)COc2c(-c3cc(F)c[nH]c3=O)cc(/C=C/c3ccc(NS(C)(=O)=O)cc3)cc21" with HCV replicon cells (2209-23), genotype 1b replicon: 54.6

---

For each record, write down the corresponding pIC50.
TARGET OR SYSTEM: HCV polymerase (NS5B570n-Con1) (Hepatitis C virus genotype 1b)
Construct: contains a 21 amino acid deletion at the C-terminus relative to the full-length HCV polymerase; 6-histidine (N); made in house; host or cells: E. coli strain BL21(DE) pLysS (pET17b)
METHOD NOTES: biochemical
Parameters: species or system HCV Con1 strain
CONDITION INFO: IC50 HCV NS5B RNA Polymerase Assay (values with asterisk), values with asterisk: cIRES RNA template, 3 nM NS5B570n-Con1
Answers are plain numbers, as −log10 of the molar value.

See these solved cases before continuing.
COc1c(NC(=O)c2ccc(NCC(F)(F)F)c(F)c2)cc(-c2ccc[nH]c2=O)cc1C(C)(C)C : 8.70
COc1c(/C=C/c2ccc(NS(=O)(=O)CCCN3CCCC3)cc2)cc(-c2ccc(C)[nH]c2=O)cc1C(C)(C)C : 7.92
COc1c(/C=C/c2ccc(NS(C)(=O)=O)cc2CO)cc(-c2ccc[nH]c2=O)cc1C(C)(C)C : 8.70
COc1c(CCc2ccc(NS(C)(=O)=O)cc2C(=O)O)cc(-c2cc(F)c[nH]c2=O)cc1C(C)(C)C : 9.00
CC(C)(CO)c1cc(/C=C/c2ccc(NS(C)(=O)=O)cc2)cc(-c2ccc[nH]c2=O)c1 : 8.22

Value sought for every listed compound: pIC50.
1. COc1c(/C=C/c2ccc(NS(C)(=O)=O)cn2)cc(-c2cc(Cl)c[nH]c2=O)cc1C(C)(C)C
2. COc1c(/C=C/c2ccc(NS(C)(=O)=O)cc2COCCC(C)(C)O)cc(-c2cc(F)c[nH]c2=O)cc1C(C)(C)C

**Result**
[8.52, 8.40]

---

For each record, write down the corresponding IC50.
TARGET OR SYSTEM: HCV polymerase (NS5B570n-Con1) (Hepatitis C virus genotype 1b, UniProt Q9WMX2)
Construct: contains a 21 amino acid deletion at the C-terminus relative to the full-length HCV polymerase; 6-histidine (N); made in house; host or cells: E. coli strain BL21(DE) pLysS (pET17b)
METHOD NOTES: biochemical
Design: species or system HCV Con1 strain
CONDITION INFO: IC50 HCV NS5B RNA Polymerase Assay (values with asterisk), values with asterisk: cIRES RNA template, 3 nM NS5B570n-Con1
Remember to put the unit after the number in your answer.

See these solved cases before continuing.
COc1c(/C=C/c2ccc(NS(C)(=O)=O)cc2)cc(-c2ccc(C(C)O)[nH]c2=O)cc1C(C)(C)C (centres unmarked) [I-223] : 1 nM
COCCc1cc(NS(C)(=O)=O)ccc1/C=C/c1cc(-c2cc(F)c[nH]c2=O)cc(C(C)(C)C)c1OC [I-227] : 1 nM
COc1c(/C=C/c2ccc(NS(C)(=O)=O)cc2)cc(-c2cc(Cl)c[nH]c2=O)cc1C1(C)COC1 [I-291] : 2 nM
COc1c(/C=C/c2ccc(NS(C)(=O)=O)cc2)cc(-c2cc(Cl)c[nH]c2=O)cc1C1CC1 [I-292] : 29 nM
COc1c(/C=C/c2ccc(NS(C)(=O)=O)cc2)cc(-c2ccc(CC#N)[nH]c2=O)cc1C(C)(C)C [I-224] : 4 nM
COc1c(/C=C/c2ccc(NS(C)(=O)=O)cc2C(C)(C)O)cc(-c2ccc[nH]c2=O)cc1C(C)(C)C [I-204] : 1 nM
COc1c(/C=C/c2ccc(NS(C)(=O)=O)cc2)cc(-c2cc(F)c[nH]c2=O)cc1C1(C(F)F)CC1 [I-269] : 3 nM
COc1ccc(-c2cc(/C=C/c3ccc(NS(C)(=O)=O)cc3C(=O)O)c(OC)c(C(C)(C)C)c2)c(=O)[nH]1 [I-211] : 4 nM
COc1c(/C=C/c2ccc(NS(C)(=O)=O)cc2CN2CCOCC2)cc(-c2cc(F)c[nH]c2=O)cc1C(C)(C)C [I-222] : 1 nM
COc1c(/C=C/c2ccc(NS(=O)(=O)CCN3CCOCC3)cc2)cc(-c2cc(F)c[nH]c2=O)cc1C(C)(C)C [I-233] : 1 nM

Value sought for every listed compound: IC50.
1. COc1c(/C=C/c2ccc(NS(C)(=O)=O)cc2F)cc(-c2cc(F)c[nH]c2=O)cc1C(C)(C)C [I-236]
2. COc1c(/C=C/c2ccccc2C(F)(F)F)cc(-c2ccc[nH]c2=O)cc1C(C)(C)C [I-239]
3. COc1c(/C=C/c2ccc(NS(C)(=O)=O)cc2)cc(-c2ccc[nH]c2=O)cc1C(C)(C)OC [I-289]

**Result**
1 nM
8 nM
2 nM

Value sought for every listed compound: IC50.
1. COc1c(/C=C/c2ccncc2C#N)cc(-c2ccc[nH]c2=O)cc1C(C)(C)C [I-245]
2. CS(=O)(=O)Nc1ccc(/C=C/c2cc(-c3ccc[nH]c3=O)cc(C3(F)CCC3)c2)cc1 [I-271]

**Result**
1: 1 nM; 2: 4 nM

---

TARGET OR SYSTEM: HCV polymerase (NS5B570n-Con1) (Hepatitis C virus genotype 1b)
Construct: contains a 21 amino acid deletion at the C-terminus relative to the full-length HCV polymerase; 6-histidine (N); made in house; host or cells: E. coli strain BL21(DE) pLysS (pET17b)
METHOD NOTES: biochemical
Set-up: species or system HCV Con1 strain
CONDITION INFO: IC50 HCV NS5B RNA Polymerase Assay, values without asterisk; 20 nM NS5B570n-Con1 enzyme, 20 nM cIRES RNA template
For each record, write down the corresponding IC50.
Answers are plain numbers, in µM.

See these solved cases before continuing.
COc1c(CCc2ccc(NS(C)(=O)=O)cc2)cc(-c2cc(Cl)c[nH]c2=O)cc1C(C)(C)C : 0.017
COc1c(C(=O)Nc2ccc(NS(C)(=O)=O)cc2C)cc(-c2ccc[nH]c2=O)cc1C(C)(C)C : 0.013
CC(C)(CO)c1cc(CCc2ccc(NS(C)(=O)=O)cc2)c(O)c(-c2ccc[nH]c2=O)c1 : 0.013

The record that follows has no IC50 shown yet.
Reading of IC50 for "COc1c(CCc2ccc(NS(C)(=O)=O)cc2)cc(-c2ccc[nH]c2=O)cc1C1(C)CC1" with HCV polymerase (NS5B570n-Con1) (Hepatitis C virus genotype 1b): 0.006

---

TARGET OR SYSTEM: HCV polymerase (NS5B570n-Con1) (Hepatitis C virus genotype 1b, UniProt Q9WMX2);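 note: recombinant His-tagged enzyme from E. coli, radiolabeled nucleotide incorporation into acid-insoluble RNA read by scintillation after filtration, no-enzyme background subtracted, activity relative to positive control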
Construct: contains a 21 amino acid deletion at the C-terminus relative to the full-length HCV polymerase; 6-histidine (N); made in house; host or cells: E. coli strain BL21(DE) pLysS (pET17b)
METHOD NOTES: biochemical
Set-up: species or system HCV Con1 strain
CONDITION INFO: IC50 HCV NS5B RNA Polymerase Assay, values without asterisk; 20 nM NS5B570n-Con1 enzyme, 20 nM cIRES RNA template
Please assign N whenever IC50 is at or above 20 nM, and Y whenever it is below.

Answered cases to consult:
COc1c(CCc2cnc(NS(C)(=O)=O)cn2)cc(-c2ccc[nH]c2=O)cc1C(C)(C)C : Y
COc1c(CCc2ccc(NS(C)(=O)=O)cc2)cc(-c2ccc(C)[nH]c2=O)cc1C(C)(C)C : Y
COc1c(/C=C(/CO)c2ccc(NS(C)(=O)=O)cc2)cc(-c2ccc[nH]c2=O)cc1C(C)(C)C : N
CC1(C)COc2c(-c3ccc[nH]c3=O)cc(/C=C/c3ccc(NS(C)(=O)=O)cc3)cc21 : Y
CC(C)(C)c1cc(/C=C/c2ccc(NS(C)(=O)=O)c(F)c2)cc(-c2ccc[nH]c2=O)c1 : Y
COc1c(NC(=O)c2ccccc2)cc(-c2ccc[nH]c2=O)cc1C(C)(C)C : N
COc1c(C(=O)Nc2ccccc2)cc(-c2ccc[nH]c2=O)cc1C(C)(C)C : N
COc1c(CC(C)(C#N)c2ccc(NS(C)(=O)=O)cc2)cc(-c2ccc[nH]c2=O)cc1C(C)(C)C (centres unmarked) : N

**Query** Strictly below 20 nM in IC50? "COc1c(/C=C/c2ccc(NS(=O)(=O)CC(F)(F)F)cc2)cc(-c2cc(F)c[nH]c2=O)cc1C(C)(C)C"
**Result** Y

**Query** Strictly below 20 nM in IC50? "CC(C)(C)c1cc(CCc2ccc(F)cc2)c(O)c(-c2ccc[nH]c2=O)c1"
**Result** N

**Query** Strictly below 20 nM in IC50? "COc1c(NC(=O)c2ccc(O)cc2F)cc(-c2ccc[nH]c2=O)cc1C(C)(C)C"
**Result** N
